Data provenance: the supplement of paper PMC9170038

Tested on: MS2 coat protein
Test Description: apparent KD of MS2 coat protein; designed switch direction (-1 OFF switch, 1 ON switch): -1; higher = weaker reporter binding
Study Conditions: input ligand: microRNA oligo, concentration not stated
Quantity: apparent KD of MS2 coat protein (nM)
Write the number in nM without appending the unit.

# input Report apparent KD of MS2 coat protein, nothing else, for this sequence: AGAGUGCUGCGAGGAUAUACAUGAGGAUCACCCAUGUAAUCGUCUGAGGCAAAGCCUCAGACGAAGUAGAAGGCGCAGUACUCA [Mat - Exclusion NG 2 - Mod of JL - D27] (Eterna round: R96, puzzle: Exclusion NG 2)
# output 12.5

# input Give the reported apparent KD of MS2 coat protein for this sequence. AGCGCCAUCGUGAGAUGGCGUAUUACAUGAGGAUCACCCAUGUAGGAUAUCGAUUGCUUUGCAGUCGAGAAGGGCAUGUACCAG [JL ENG3 3.80 Mod K] (Eterna round: R96, puzzle: Exclusion NG 3)
# output 32.8

# input // fetch apparent KD of MS2 coat protein given entry GUAAUUAAUGUAGGAUAUGCAAGGCGAAACAUGAGAGAAGGCCAUGUGGAUCACCCAUGUAAUGCGGUCUGCGUACAGAUCGCU [salish99_ExNG1_r4_003] (Eterna round: R96, puzzle: Exclusion NG 1)
# output 16.1

# input Please give measured apparent KD of MS2 coat protein of the following entry: AUAAUACAUGUAGGAUAUGCGUGGCGAAGCUAUGCAGAAGGACAUGAGGAUCACCCAUGUUCUAGCGUCUGCGUACAGAUGCUA [JL eng1 1.35 mod 1] (Eterna round: R96, puzzle: Exclusion NG 1)
# output 14

====

What apparent KD of K4 kissing-loop reporter was measured for each of the following?
Tested on: K4 kissing-loop RNA reporter;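 also: bound reporter read as fluorescence of individual clusters on recovered sequencing chips by microscopy, with normalized cluster intensities fitted with a binding model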
Test Description: apparent KD of K4 kissing-loop reporter; higher = weaker reporter binding
Study Conditions: Eterna round: R107; input ligand: FMN 200 uM
Give just the numeric value; nM need not be written.

# input Give apparent KD of K4 kissing-loop reporter for AUAUCUGUUCGAAAGAACGGAUCUUCGGAAGGAGCGCGUGAAAACGCAGGUAGGUCGCCGAAGUUAUUAGGUAGUGAUGUUACCU [Arginine A K4 7]
# output 129

# input Please indicate apparent KD of K4 kissing-loop reporter recorded for AGACUACUGAUAGGAUAUAACAUCCUAGUCGUAUACCGAAAGGUAUACGAUUCCCUUCUAGUGAUGUUAGAAGGGUCGGUAGUCA [Omei KL FMN B Exc B v12]
# output 78.5

# input Identify measured apparent KD of K4 kissing-loop reporter corresponding to CCAUCGCUAUUCGAUACCAGUCAUUUUUUAUUUUUUUUUUUUUUUGGAGUGAUGUUCCAAGACCCUUGGCAGCGAAUAGUGAUGG [whbob_SS_Theo_B_th77]
# output 91.3

# input Complete the entry with apparent KD of K4 kissing-loop reporter for UGAUACCAGACGGCCGCCACUCCUGCAGUCAAAGACUGCUAAAAGGAAAUCGUCCAGUGAUGUUGGAGGACCGGGUCUGGUAUCU [TrypBX 14 #SwitchBubble #Palindromic #StaticStem]
# output 647

# input Provide one value: measured apparent KD of K4 kissing-loop reporter of UUUAUAAAGUCGGCCGCCACUGGAUUUAUAUUUGUUUAGUCUGGAUCAAAGUGAUGUUUUGAGUCCAGGACCGGGACAUUUGUUA [whbob_Ex_Tryp_B_w36]
# output 92.1

# input Please indicate apparent KD of K4 kissing-loop reporter recorded for "CGUGAGGACCUGAGGUGAUGUAUAGUAUCGCGAGGACCGGUACGGCCGCCACUCGUGAAGAGAAAGGAGUGAUGUUCCGUAAGGG"
# output 474

# input For the sequence AUUUUGGUUUAGAGUGAUGUUCCUUGUAUUCGAGGACCGGUACGGCCGCCACUCGAAUAGAAAAGAAAAGAAAUGUGUGAUGUUU [BDazzled - #5 SS Tryptophan A] , report apparent KD of K4 kissing-loop reporter.
# output 772

# input Report apparent KD of K4 kissing-loop reporter, nothing else, for this sequence: AAAAUAAUCCAGUGAUGUUGGUAUCCAGAUACCAGCCACGAAAGUGGCCCUUGGCAGCUGUGGACGUACAAAAUAAGUACGUCCU [#OpenEnded 8 #StaticStem #K4Early]
# output 534

# input Please list apparent KD of K4 kissing-loop reporter recorded for the sequence "GCCUGUGCACGAAGGAGCGCCGUGACAGGUUACUGCCUUGGGCAGUGAUGUUGCUCAAUCUGGCAGGUAGGUCGCGUGCACAGGC"
# output 132

# input Item UCCUGCAAUCUGCCACGAAAGUGGAUUGAUACCAGAGUCGAAAGACUCCCUUGGCAGCGAGUGAUGUUCGUAGCAGGUAAAUAAA [MatMod 6 - Jieux - Exclusion - Theophylline A] : provide apparent KD of K4 kissing-loop reporter
# output 203

# input Give reported apparent KD of K4 kissing-loop reporter value for AUUAAUAUCACGGCCGCCACUGUAUAUUGUUUUUAUAUUUAGAAUAAUUGCCAGUGAUGUUGGAACAGGACCGGGUGAGUUUAUA [#28 K4 Tryptophan B Same State]
# output 511

# input Using known records, supply apparent KD of K4 kissing-loop reporter for GGAUAGGACUGAGGAUAUGGGCUAGGCAAGAAUAACUUGUCUAGCAAAUCCAUGAGGAGUGAUGUUCCAGAAGGCGGUCCUAUCG [FmnBX 1 U10+G76]
# output 601

# input Give reported apparent KD of K4 kissing-loop reporter value for AGGGCUGAGAGCGAUACCAGCGGUAACUGUAUGGUCCAAUAGAGUGAUGUUUUAUAGAGCCGCCCUUGGCAGCGCAAUCUAUUAG [XTheo-B5]
# output 245

# input Check the records and state apparent KD of K4 kissing-loop reporter for UUCAGGUGUUCGGCCGCCACUCCAGUGAUGUUGGAGUGGCUUCACAAGGGCCAGGACAAUGUAAGGAGGACCGGGAAUAUCGCAG [Quonerar]
# output 127

# input Please report the measured apparent KD of K4 kissing-loop reporter for GUGCGGCUAGUGAUGUUGGUUGCGUGGGAAGGAGCGCAGAAACAUGCAGGUAGGUCGCCCACACCUCUGAAAGAAGGUUAAUUCA [Biistian]
# output 218

# input Retrieve apparent KD of K4 kissing-loop reporter measured for CGCCACGACUGAAGGAGCGCGCCAGUGAUGUUGGACGGCUUUGUCAAGGAAACUGCACCGGUGCAGGUAGGUCGCAGUUCGUGGU [Quisbiri] and print it.
# output 398

# input Indicate the recorded apparent KD of K4 kissing-loop reporter value for this sequence: UGACAUUGCUCAGAUACCAGACCUGAGGAUCACCCUGGUGCCAAACGUACAAUAAUAAAUGUCCCUUGGCAGCUGAGCAAUGUCU [TheoBX 14]
# output 77.8

# input Respond only with apparent KD of K4 kissing-loop reporter recorded for UGACUGGACUGAAGGAGCGCUAAAACUCCUAGUGAUGUUGGGAAAUAGAGACAAAGUCUCAAGCAGGUAGGUCGCAGUCUAGUCU [ArgBS 23 #SwitchBubble #StaticStem]
# output 166

# input Please report the measured apparent KD of K4 kissing-loop reporter for AAUAAAAUCACGGCCGCCACUGAAUUAUUGGUAAGUAGUGAUGUUACUUUACAUAUCUAAUUUAACAGGACCGGGUGAAUAUUUA [#17 K4 Tryptophan B Exclusion]
# output 130

# input Report apparent KD of K4 kissing-loop reporter for GUAGAUAGGCUACAUCUCUAGUCUAUAGACUAGGAUAUCAGGAAACUGAGAAGGAGUCUCAUUGGAGUGAUGUUCCAAGAAUAAU [KL-SSFMN-A15]
# output 120

# input Supply apparent KD of K4 kissing-loop reporter value. Item: AACUCUCAGGCACCUGAGUGAUGUUCAGGCCGAGGACCGGUACGGCCGCCACUCGGGCCUGAGAGAGGUUAUCAAAGAUAGCCAA [Omei KL Tryp A SS A v2]
# output 561

# input Item UAUUCUGUUCGAAAGAACGGAAUUUCGGAAGGAGCGCGAGAAAUCGCAGGUAGGUCGCCGAAAUUAUUAGGUAGUGAUGUUACCU [Arginine A K4 6] : provide apparent KD of K4 kissing-loop reporter
# output 125

# input Assign apparent KD of K4 kissing-loop reporter to the following record: "UUUACUCCGAGUGAUGUUCGGCGUAUCUGACGAGGACCGGUACGGCCGCCACUCGGUUCGACUACGAAGGCCUUGGCCACAGAUU"
# output 268

====

Tested on: MS2 coat protein
Test Description: apparent KD of MS2 coat protein; higher = weaker reporter binding
Study Conditions: Eterna round: R107; input ligand: tryptophan 2.4 mM
Quantity: apparent KD of MS2 coat protein (nM)
I only need the number, in nM, no unit after it.

# input For the sequence CCGCCCUACCGCGAUACCAGUACGGCAGUUAACAUGAGGAUCACCCAUGUGCAAACAUAAUACCCUUGGCAGCGCCUGAAUCCAU [theeternabot_sameState_MS2_Theo_B_12] , give its measured apparent KD of MS2 coat protein value.
# output 15.6

# input Give apparent KD of MS2 coat protein for ACAUGAGGAUCACCCAUGUAUUACCGGGAAGGAGCGCGUAAGGACGCAGGUAGGUCGCUCGGCGUCGUGCUGUAAAGCACGACGA [#1 Same State - Arginine A Attempt #24 (HarryS)]
# output 15.3

# input Output measured apparent KD of MS2 coat protein for this item: "UGUAUGUGAUCUGAUACCAGAGUUGAUAAUCUGAGGAUCACCCUGGUAAGGCGAAAGCCGCUCCCUUGGCAGCAGAUCGCAUACU"
# output 884

# input Retrieve apparent KD of MS2 coat protein measured for UGAACAUGAGGAUCACCCAUGUAGUCAGAUACCAGACACUGCAUGGUCCCUUGGCAGCUGAAGAGCGUUUGCCAAAUAACGUUCA [Theo A SS t4] and print it.
# output 258

# input Complete the entry with apparent KD of MS2 coat protein for AUAUGAUCAUGUGAUACCAGAAAUGGUAGUCCUCGCUGGAUUACAUGAGGAUCACCCAUGUUCCCUUGGCAGCAUAUGAUCAUAU [#02 Exclusion-TheophyllineB]
# output 60.9

# input Look up apparent KD of MS2 coat protein of AACAGGGCUCGCACGAAGCCCUAAGGUGAUACCAGCACAUGUAAGUGCCCUUGGCAGCACGGUACAUGAGGAUCACCCAUGUAGA [Isleenen] and report it.
# output 59.4
